Where do these numbers come from? They come from patent US12760268.

# SYSTEM TESTED: Cellular nucleic acid-binding protein (CNBP, ZNF9) (Homo sapiens, UniProt P62633 P62633:1-177)
# Sequence (P62633 whole entry, one chain of several): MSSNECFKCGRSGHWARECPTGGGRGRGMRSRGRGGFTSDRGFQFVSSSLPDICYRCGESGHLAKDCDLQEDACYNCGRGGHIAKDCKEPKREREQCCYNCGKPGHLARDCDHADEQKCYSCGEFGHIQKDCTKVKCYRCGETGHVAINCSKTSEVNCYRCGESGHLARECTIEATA
# METHOD NOTES: BLI; 2:1 heterogeneous ligand fit, first Kd; off-target
# COND: tags: His-tag, Novus Biologicals NBP2-22742, immobilized on Ni-NTA biosensor; label: 5'-FAM (with added 5' T), 5'-Cy5 or 5'-biotin; multi-hairpin on stem; G-quadruplex predicted
ASSAY READOUT: pKd
The quantity pKd is defined as the negative base-10 logarithm of the molar concentration.

// query Any idea what pKd was measured for tJBA8.1 (ssDNA) DNA: GCAGCAGCGTAAAGGGGGTGTTTGTGCGGTGTGGAGTGCGCGTGCTGCTGC ?
// result 8.73
